Hello, the source for this data is the domain aggregation screens of Martell et al. (2025), in case you need it.

I'd be grateful if you could share measured soluble fraction (log2) for these entries.
- test-details: soluble fraction after stress (log2 fold change); higher = more stays soluble; pooled small domains, quantitative proteomics;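 also: 20 min heating vs room temperature control held 20 min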
- reported-conditions: stress: 75 degC
Please give the numeric answer without any surrounding text.

Item `HMDALPLIQLEKEIKDFISQGQKINAIKHYRNVMDRDFGTTISLKLAKYTVDALAQNIKVDLTKGYDQ` has what recorded soluble fraction (log2)?
-1.01

I would be grateful if you could share the reported soluble fraction (log2) for `HMLLSEPSVLKFNDDNSYEIVSGFLTEYKDKIVKIERRYKKATVKITVAGEEKEIKVSFVEDTE` .
-1.43

Could you share which soluble fraction (log2) value was measured for `HMPRTEILMVDEEMEGERLDAFVAEQLDELSRSLVKTLIENGEIRVDGKQQKPSYRLKAGEEIIVEIPA` ?
0.439

Need soluble fraction (log2) of `HMYAHLGKNLEVVINKALAQEDPEKKAGFAHHIAYYMKLAYSNWHKELVHDDAIRSELDTITGGELEFSN` , thanks.
0.609

* * *

I'd be grateful if you could share measured soluble fraction (log2) for these entries.
- test-details: soluble fraction after stress (log2 fold change); higher = more stays soluble; pooled small domains, quantitative proteomics
- reported-conditions: stress: 75 degC
Kindly provide the number alone.

For `HMGGELLSLRRIGTLTGISYPTLLRYVARYGEQIPQTGTGRSRRFPPAAVPVFQELRATRGRAPRATA` , what is its reported soluble fraction (log2)?
-0.104

Tell me the measured soluble fraction (log2) of `HMTSLTSDEEQIINVLRAEESVYINALATKSKIPLQKLLGLLIQLEFKGLIHSLPGSHYKIV` , please.
-0.221

Requested read-out: soluble fraction (log2). Entry: `HMGIAEAKRVIVRTLHDVLGPEADFLTEKIDVAQTAAELRVHAEKYRDMLVDMGKPKKSAAFWEAFEAALP`
-0.588

Which soluble fraction (log2) is listed for `HMRAPEIEAARSDLDVGQTVQIVRHLHGNQYEVFYRGAQWQAEAVGSSGANDAQTAVITGKNGNILLIQI` ?
0.0986

# query: soluble fraction (log2) of entry `HMAQLSDMLTYLRKRKGLSQQELANTLKISRSAIGMYETGKREPDLETLEVFADFYNVDMNTLTGKA`
-0.245

# query: soluble fraction (log2) of entry `HMDLAPLQTVDIAINYAKAAELAAILKSSEGGILSDRGGVTVDERTNTLLIRDTLESIDEARKTI`
0.224

Can you look up the measured soluble fraction (log2) of `HMQSNDTAEIEAVVKEIMAANERVVNDYRSGNTKVVSFFVGQVMKATKGKANPKVVNEVLAKLLK` for me?
-0.823

Consider the sequence `HMVDSLTIGRRIRQLRTERGMTLEELAAAVGRAPSQLSMIENGRREPKLTLLQAIARALGSTLDALLE` and give its measured soluble fraction (log2).
-0.562

Name the reported soluble fraction (log2) value associated with the sequence `HMAQRAADEARTHEILGLLRQARAALDHGGTARAARLRASIAEKLPAAPALPAWFARQLEQVDSQLAELQD`
-0.768

So what does the record say about soluble fraction (log2) for `HMTGIKISVDRLQIGNYVKLPLNWKDHPFLFSSFAIKSQEEIDLIRRLGLKQVIMFPDKSSMPPKPV` ?
-1.55
